Molecular target: 5-lipoxygenase (Cavia porcellus, UniProt A0A286X958)
Construct: endogenous in cells; host or cells: guinea pig (Hartley strain) casein-elicited peritoneal exudate cells, intact cell suspension
Sequence (A0A286X958 1-674): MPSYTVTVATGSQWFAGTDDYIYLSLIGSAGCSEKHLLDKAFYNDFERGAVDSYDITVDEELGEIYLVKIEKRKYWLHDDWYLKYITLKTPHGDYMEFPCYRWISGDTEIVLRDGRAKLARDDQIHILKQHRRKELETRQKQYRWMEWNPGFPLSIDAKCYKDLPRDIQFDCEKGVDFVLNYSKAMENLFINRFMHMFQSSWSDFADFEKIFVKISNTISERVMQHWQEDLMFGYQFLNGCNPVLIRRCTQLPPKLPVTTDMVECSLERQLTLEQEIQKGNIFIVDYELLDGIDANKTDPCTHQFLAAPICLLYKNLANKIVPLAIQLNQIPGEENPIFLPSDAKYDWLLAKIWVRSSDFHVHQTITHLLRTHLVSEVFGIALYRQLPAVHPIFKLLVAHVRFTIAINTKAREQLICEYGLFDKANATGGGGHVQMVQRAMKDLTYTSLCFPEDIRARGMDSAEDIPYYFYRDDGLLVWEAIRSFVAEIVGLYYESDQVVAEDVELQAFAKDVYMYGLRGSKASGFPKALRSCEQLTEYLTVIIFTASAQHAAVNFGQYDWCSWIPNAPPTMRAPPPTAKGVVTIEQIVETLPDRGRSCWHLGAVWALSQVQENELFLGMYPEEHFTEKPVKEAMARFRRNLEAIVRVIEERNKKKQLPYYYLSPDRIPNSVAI
Test: 5-Lipoxygenase inhibitory activity (conversion of 14C-arachidonic acid to 5-HETE) in guinea pig peritoneal exudate cells
Format: cell-based, guinea pig (Hartley strain)
Conditions: concentration 10^-6 M; read-out: inhibition ratio (%) of 5-lipoxygenase activity
VALUE TYPE: inhibition at 1 µM (%)

P: CCCC/C=C\CCCCCCCC1=C(OC)C(=O)C=C(OC)C1=O
Q: COC1=CC(=O)C(O)=C(CCCCCCC/C=C\CCCCCCCc2cc(O)cc(O)c2)C1=O
Of P and Q , whose reported inhibition at 1 µM is numerically smaller? Please reply using the label of the selected record.
P

A: CCCCCCCCCCCCCC1=C(OC)C(=O)C=C(OC)C1=O
B: COC1=CC(=O)C(OC)=C(CCCCCC2=C(OC)C(=O)C=C(OC)C2=O)C1=O
Form field 'greater inhibition at 1 µM' accepts A or B ; which applies? Reply with the label of the item you choose.
B
(B: 74%, A: 12%)

1: COC1=CC(=O)C(OC)=C(CCCCCC2=C(OC)C(=O)C(C)=C(OC)C2=O)C1=O
2: COC1=CC(=O)C(OC)=C(CCCCCCCCCCCCC2=C(OC)C(=O)C=C(OC)C2=O)C1=O
Lowest inhibition at 1 µM? choose 1 or 2 Answer with the label corresponding to your selection.
1
(1: 53%, 2: 77%)

P: COC1=CC(=O)C(O)=C(CCCCCCCC2OC2CCCCCCCC2=C(O)C(=O)C=C(OC)C2=O)C1=O (centres unmarked)
Q: COC1=CC(=O)C(O)=C(CCCCCCC/C=C\CCCCCCCc2cc(O)c(C)c(O)c2)C1=O
Endpoint returns whichever of P and Q has the numerically higher inhibition at 1 µM. Response format: the label of the selected entry.
P
(P: 96%, Q: 58%)
